# TARGET OF ASSAY: UniProtKB P42574
# PROCEDURE TEXT: Inhibition of His-tagged human recombinant caspase 3 expressed in Escherichia coli using acetyl-Asp-Glu-Val-Asp-7- amido-4-methylcoumarin (Ac-DEVD-AMC) as substrate by fluorimetric assay
Exercise: state measured IC50 for each of the compounds provided.

Worked set:
Cc1nc(-c2ccccc2)ccc1C(=O)N/N=C1\C(=O)N(C)c2ccccc21 : 456 µM
Cc1ccc(-c2ccc(C(=O)N/N=C3\C(=O)N(C)c4ccccc43)c(C)n2)cc1 : 375 µM
Cc1ccccc1-c1ccc(C(=O)N/N=C2\C(=O)N(C)c3ccccc32)c(C)n1 : 351 µM
Cc1nc(-c2cccc([N+](=O)[O-])c2)ccc1C(=O)N/N=C1\C(=O)N(C)c2ccccc21 : 278 µM
Cc1nc(-c2ccccc2Br)ccc1C(=O)N/N=C1\C(=O)N(C)c2ccccc21 : 132 µM

Could you report IC50 for every entry in the following list?
1. COc1ccccc1-c1ccc(C(=O)N/N=C2\C(=O)N(C)c3ccccc32)c(C)n1
2. Cc1nc(-c2cccc(Br)c2)ccc1C(=O)N/N=C1\C(=O)N(C)c2ccccc21

["552 µM", "130 µM"]

* * *

# TARGET OF ASSAY: Caspase-3 (Homo sapiens, UniProt P42574)
# Sequence (P42574 29-175 limits assumed): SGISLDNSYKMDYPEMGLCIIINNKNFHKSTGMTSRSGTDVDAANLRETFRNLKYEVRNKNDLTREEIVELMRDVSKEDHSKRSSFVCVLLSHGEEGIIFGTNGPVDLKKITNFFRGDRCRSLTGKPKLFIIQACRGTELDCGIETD
# Sequence (P42574 176-277 limits assumed): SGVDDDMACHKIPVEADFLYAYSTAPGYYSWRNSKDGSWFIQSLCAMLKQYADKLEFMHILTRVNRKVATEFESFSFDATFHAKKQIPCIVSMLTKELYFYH
# PROCEDURE TEXT: Inhibition of His-tagged human recombinant caspase 3 expressed in Escherichia coli using acetyl-Asp-Glu-Val-Asp-7- amido-4-methylcoumarin (Ac-DEVD-AMC) as substrate by fluorimetric assay
Consider the following molecules; for each one, report its IC50.
Give bare numbers, in µM.

Examples with their reported IC50 follow.
Cc1nc(-c2ccc(Br)cc2)ccc1C(=O)N/N=C1\C(=O)N(C)c2ccccc21 : 122
COc1ccc(-c2ccc(C(=O)N/N=C3\C(=O)N(C)c4ccccc43)c(C)n2)cc1 : 487
Cc1nc(-c2ccc([N+](=O)[O-])cc2)ccc1C(=O)N/N=C1\C(=O)N(C)c2ccccc21 : 202
COc1ccc(-c2ccc(C(=O)N/N=C3\C(=O)N(C)c4ccccc43)c(C)n2)cc1OC : 599
COc1cc(-c2ccc(C(=O)N/N=C3\C(=O)N(C)c4ccccc43)c(C)n2)cc(OC)c1OC : 674

Would you mind listing IC50 for each of the following molecules?
1. Cc1nc(-c2ccccc2[N+](=O)[O-])ccc1C(=O)N/N=C1\C(=O)N(C)c2ccccc21
2. COc1cccc(-c2ccc(C(=O)N/N=C3\C(=O)N(C)c4ccccc43)c(C)n2)c1

297
547

Given the entry Cc1cccc(-c2ccc(C(=O)N/N=C3\C(=O)N(C)c4ccccc43)c(C)n2)c1 , what IC50 was observed with Caspase-3 (Homo sapiens, UniProt P42574)? 310
